Would you mind telling me the reported melting point of each entry?

Sample records with melting point:
- Compound: "NC(=O)c1nc2cnc3ccc(Cl)cc3c2n1-c1ccccc1Cl [Example 83]"
  melting point: "194 to 195 °C"
- Compound: "Brc1ccccc1-n1cnc2cnc3ccc(-c4ccccc4)cc3c21 [Example 53]"
  melting point: "128 to 129 °C"
- Compound: "Clc1ccc2ncc3ncn(-c4ccccc4)c3c2c1 [Example 23]"
  melting point: "240 to 242 °C"
- Compound: "N/C(Cc1ccccc1-n1cnc2cnc3ccc(-c4ccccc4)cc3c21)=N/O [Example 68]"
  melting point: "253 to 254 °C"

*Q* Form field: reported melting point of NCc1cccc(-n2cnc3cnc4ccc(Cl)cc4c32)c1 [Example 42]
*A* 148 to 149 °C
